VALUE_TYPE: logP

- STRUCTURE_SMILES: "Clc1ccc(Oc2cccc(Cl)c2Cl)c(Cl)c1"
  logP: 5.88
- STRUCTURE_SMILES: "Clc1ccc(Oc2cccc(Cl)c2Cl)cc1Cl"
  logP: 5.99
- STRUCTURE_SMILES: "Clc1ccc(Oc2ccc(Cl)c(Cl)c2)cc1"
  logP: 5.88
- STRUCTURE_SMILES: "Clc1cc(Cl)c(Oc2ccccc2Cl)cc1Cl"
  logP: 5.97
- STRUCTURE_SMILES: "Clc1ccc(Oc2c(Cl)cc(Cl)c(Cl)c2Cl)c(Cl)c1"
  logP: 6.84
- STRUCTURE_SMILES: "Clc1ccc(Oc2ccc(Cl)c(Cl)c2Cl)cc1"
  logP: 6.14
- STRUCTURE_SMILES: "Clc1cc(Cl)c(Cl)c(Oc2cc(Cl)c(Cl)c(Cl)c2)c1"
  logP: 7.01
